Tyrosinase (Homo sapiens, UniProt P14679): recorded IC50 for assorted molecules
Sequence (P14679 whole entry): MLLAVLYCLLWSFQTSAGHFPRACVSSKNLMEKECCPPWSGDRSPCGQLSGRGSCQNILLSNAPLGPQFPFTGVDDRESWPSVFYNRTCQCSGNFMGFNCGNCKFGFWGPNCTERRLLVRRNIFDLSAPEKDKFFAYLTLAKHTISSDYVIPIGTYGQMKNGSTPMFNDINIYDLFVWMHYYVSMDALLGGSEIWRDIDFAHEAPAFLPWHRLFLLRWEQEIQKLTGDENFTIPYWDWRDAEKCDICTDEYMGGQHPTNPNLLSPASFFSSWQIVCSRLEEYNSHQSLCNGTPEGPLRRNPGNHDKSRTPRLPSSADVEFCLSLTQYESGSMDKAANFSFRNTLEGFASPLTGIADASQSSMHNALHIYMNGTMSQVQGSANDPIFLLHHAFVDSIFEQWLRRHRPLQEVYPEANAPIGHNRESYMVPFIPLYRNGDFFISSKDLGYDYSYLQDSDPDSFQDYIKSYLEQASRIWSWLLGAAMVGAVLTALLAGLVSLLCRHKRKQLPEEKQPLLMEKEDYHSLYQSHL

Smiles code	IC50
O=C1C(=Cc2ccc(O)cc2O)C(=O)c2ccccc21	> 100 µM
O=C1/C(=C/c2ccc(O)cc2O)Sc2ccccc21	5.9 µM
O=C1c2ccccc2C(=O)N1Cc1ccc(O)cc1O	> 100 µM
O=c1c2ccccc2[nH]n1Cc1ccc(O)cc1O	> 100 µM
CN(C)c1cc(O)c2c(c1)O/C(=C\c1ccc(O)cc1O)C2=O	18.4 µM
COc1cc(O)ccc1/C=C1\Oc2cc(O)ccc2C1=O	> 100 µM
COc1ccc2c(c1OC)O/C(=C\c1ccc(O)cc1O)C2=O	> 100 µM
CCCCOc1ccc2c(c1)O/C(=C\c1ccc(O)cc1O)C2=O	> 100 µM
Oc1ccc(Cc2cc3cccc(O)c3o2)c(O)c1	> 100 µM
O=C1/C(=C/c2ccc(O)cc2O)Cc2c(O)cccc21	1.6 µM
Nc1c(C(=O)c2ccc(O)cc2O)oc2c(O)cccc12	> 100 µM
O=C1/C(=C/c2ccc(O)cc2O)Cc2ccccc21	5.8 µM

====

Each entry below carries its recorded CC50.
Protocol: in vitro
Conditions: human, MNT-1 cells
Description: Cytotoxicity against human MNT-1 cells
Metric name: CC50

Smiles code	Experimental value
O=C1/C(=C/c2ccc(O)cc2O)Oc2c(O)cccc21	108 µM
O=C1/C(=C/c2ccc(O)cc2O)Cc2c(O)cccc21	91 µM

====

Each entry below carries its recorded pIC50.
System name: Tyrosinase (Homo sapiens, UniProt P14679)
pIC50: −log10 of the molar value.

Smiles code	Cmp	pIC50
Cc1c(C(=O)c2ccc(O)cc2O)oc2c(O)cccc12	<	4.00
O=C1/C(=C/c2ccc(O)cc2O)Oc2cc(O)cc(O)c21	=	5.11
O=C1/C(=C/c2ccc(O)cc2O)Oc2cc(Cl)ccc21	<	4.00
O=c1cc(-c2ccc(O)cc2O)oc2ccccc12	<	4.00
O=C1/C(=C/c2ccc(O)cc2O)Oc2cc(F)cc(F)c21	=	4.06
COc1cc(OC)c2c(c1)O/C(=C\c1ccc(O)cc1O)C2=O	<	4.00
O=C1/C(=C/c2ccc(O)cc2O)Oc2c1ccc(O)c2I	=	4.49
COc1ccc2c(c1)O/C(=C\c1ccc(O)cc1O)C2=O	=	5.16
O=C1/C(=C/c2ccc(O)cc2O)Oc2ccc(O)cc21	=	4.72
COc1ccc2c(c1C)O/C(=C\c1ccc(O)cc1O)C2=O	<	4.00
O=C1/C(=C/c2c(O)cc(O)cc2O)Oc2cc(O)ccc21	=	4.82
O=C1/C(=C/c2ccc(O)cc2O)Sc2cc(O)ccc21	=	5.24
COc1cccc2c1O/C(=C\c1ccc(O)cc1O)C2=O	=	4.10
